Test System: Mu-type opioid receptor (Mus musculus)
Sequence (P42866 whole entry): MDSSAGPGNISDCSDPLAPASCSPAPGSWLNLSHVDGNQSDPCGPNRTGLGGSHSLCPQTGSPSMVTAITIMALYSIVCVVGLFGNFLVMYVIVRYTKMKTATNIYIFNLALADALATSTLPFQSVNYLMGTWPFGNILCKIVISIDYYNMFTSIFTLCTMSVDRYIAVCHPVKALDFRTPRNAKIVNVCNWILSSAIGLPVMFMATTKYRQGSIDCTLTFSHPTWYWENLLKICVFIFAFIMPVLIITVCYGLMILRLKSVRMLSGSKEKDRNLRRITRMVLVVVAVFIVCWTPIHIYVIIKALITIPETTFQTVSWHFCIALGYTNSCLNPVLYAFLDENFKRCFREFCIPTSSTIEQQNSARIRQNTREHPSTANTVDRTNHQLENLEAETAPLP
Method Description: Displacement of [125]IBNtxA from mouse MOR stably expressed in CHO cell membranes incubated for 90 mins
Design: species or system Membrane
pKi reference
API: returns pKi as number; meaning -log10 of concentration in mol/L.

Some solved cases for reference:
>>> quantitative_result("CC[C@@H]1C[N+]2([O-])CCc3c([nH]c4cccc(OC)c34)[C@@H]2C[C@@H]1/C(=C\\OC)C(=O)OC (stereo not given in full)")
5.16
>>> quantitative_result("C=C[C@H]1CN2CCc3c([nH]c4cccc(OC)c34)[C@@H]2C[C@@H]1/C(=C\\OC)C(=O)OC")
6.18
>>> quantitative_result("CC[C@@H]1C[N+]2=C(C[C@@H]1/C(=C\\OC)C(=O)OC)c1[nH]c3cccc(OC)c3c1CC2")
7.47
>>> quantitative_result("CC[C@@H]1CN2CCc3c([nH]c4cccc(O[C@@H]5O[C@H](C(=O)O)[C@@H](O)[C@H](O)[C@H]5O)c34)[C@@H]2C[C@@H]1/C(=C\\OC)C(=O)OC")
5.78

# next compound below
Prompt line: Consider the compound shown here: CC[C@@H]1CN2CCc3c([nH]c4cccc(O)c34)[C@@H]2C[C@@H]1/C(=C\OC)C(=O)OC What is its recorded pKi?
Response line: 6.67

###

EC50 reference
Test System: Kappa-type opioid receptor (Mus musculus)
Sequence (P33534 whole entry): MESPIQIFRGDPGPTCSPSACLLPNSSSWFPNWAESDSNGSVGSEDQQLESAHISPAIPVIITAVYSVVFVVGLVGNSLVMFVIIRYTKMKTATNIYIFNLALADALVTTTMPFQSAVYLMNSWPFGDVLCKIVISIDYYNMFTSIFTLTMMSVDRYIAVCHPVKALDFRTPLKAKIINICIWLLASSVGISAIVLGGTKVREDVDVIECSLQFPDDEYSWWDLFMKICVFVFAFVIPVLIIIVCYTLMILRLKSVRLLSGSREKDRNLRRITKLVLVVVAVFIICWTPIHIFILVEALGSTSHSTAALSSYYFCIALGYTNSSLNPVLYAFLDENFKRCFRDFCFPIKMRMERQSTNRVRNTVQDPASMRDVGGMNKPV
Method Description: Agonist activity at mouse KOR expressed in CHO cell membranes assessed as stimulation of [35S]-GTPgammaS binding incubated for 60 mins by scintillation spectroscopy analysis
Report the figure along with its unit, number first.

>>> result("CC[C@@H]1C[N+]2=C(C[C@@H]1/C(=C\\OC)C(=O)OC)c1[nH]c3cccc(OC)c3c1CC2")
"0.166 µM"
>>> result("CC[C@@H]1CN2CCc3c([nH]c4cccc(O[C@@H]5O[C@H](C(=O)O)[C@@H](O)[C@H](O)[C@H]5O)c34)[C@@H]2C[C@@H]1/C(=C\\OC)C(=O)OC")
"1.14 µM"
>>> result("CC[C@@H]1CN2CCc3c([nH]c4cccc(O)c34)[C@@H]2C[C@@H]1/C(=C\\OC)C(=O)OC")
"0.858 µM"

# next compound below
Prompt line: Consider the compound shown here: C=C[C@H]1CN2CCc3c([nH]c4cccc(OC)c34)[C@@H]2C[C@@H]1/C(=C\OC)C(=O)OC What is its recorded EC50?
Response line: 3.59 µM

###

Method Description: Drug concentration in 129Sv6 mouse brain at 10 mg/kg, po measured after 15 mins by LC-MS/MS analysis
Assay type: ADME, organism-based
Conditions Used: read-out: Ct
Experimental Readout: concentration at 0.25 h (µM)
Field: numeric (µM). Do not append units.

Prompt line: Consider the compound shown here: CC[C@@H]1CN2CCc3c([nH]c4cccc(OC)c34)[C@@H]2C[C@@H]1/C(=C\OC)C(=O)OC What is its recorded concentration at 0.25 h?
Response line: 12.2

###

Method Description: Toxicity in sc dosed 129Sv6 mouse assessed as lethality
Format: organism-based
Conditions Used: in vivo
Experimental Readout: LD50 (mg/kg)
Field: numeric (mg/kg). Do not append units.

Prompt line: Consider the compound shown here: CC[C@@H]1C[N+]2=C(C[C@@H]1/C(=C\OC)C(=O)OC)c1[nH]c3cccc(OC)c3c1CC2 What is its recorded LD50?
Response line: 48.4

###

Method Description: Drug concentration in C57BL/6J mouse plasma at 1 mg/kg, sc measured after 20 mins by LC-MS/MS analysis
Assay type: ADME, organism-based
Experimental Readout: concentration at 20 min
Report the figure along with its unit, number first.

>>> result("CC[C@@H]1CN2CC[C@@]3(O)C(=Nc4cccc(OC)c43)[C@@H]2C[C@@H]1/C(=C\\OC)C(=O)OC")
"270 nM"

# next compound below
Prompt line: Consider the compound shown here: CO/C=C(/C(=O)OC)[C@@H]1CCN2CC[C@]3(Nc4cccc(OC)c4C3=O)[C@@H]2C1 What is its recorded concentration at 20 min?
Response line: 410 nM

###

Method Description: Drug concentration in C57BL/6J mouse brain at 30 mg/kg, po measured after 20 mins by LC-MS/MS analysis
Assay type: ADME, organism-based
Conditions Used: read-out: Ct
Experimental Readout: concentration at 20 min (µM)
Field: numeric (µM). Do not append units.

Prompt line: Consider the compound shown here: CC[C@@H]1CN2CCc3c([nH]c4cccc(OC)c34)[C@@H]2C[C@@H]1/C(=C\OC)C(=O)OC What is its recorded concentration at 20 min?
Response line: 6.63

###

Test System: Delta-type opioid receptor (Mus musculus)
Method Description: Displacement of [125]IBNtxA from mouse DOR stably expressed in CHO cell membranes incubated for 90 mins
Set-up: species or system Membrane
log10(Ki) reference
Base-10 log of Ki, unit µM.

Some solved cases for reference:
>>> quantitative_result("CC[C@@H]1CN2CCc3c([nH]c4cccc(O[C@@H]5O[C@H](C(=O)O)[C@@H](O)[C@H](O)[C@H]5O)c34)[C@@H]2C[C@@H]1/C(=C\\OC)C(=O)OC")
0.51
>>> quantitative_result("C=C[C@H]1CN2CCc3c([nH]c4cccc(OC)c34)[C@@H]2C[C@@H]1/C(=C\\OC)C(=O)OC")
0.53
>>> quantitative_result("CC[C@@H]1CN2CCc3c([nH]c4cccc(O)c34)[C@@H]2C[C@@H]1/C(=C\\OC)C(=O)OC")
0.27
>>> quantitative_result("CC[C@@H]1C[N+]2([O-])CCc3c([nH]c4cccc(OC)c34)[C@@H]2C[C@@H]1/C(=C\\OC)C(=O)OC (stereo not given in full)")
0.62

# next molecule below
Prompt line: Notebook: pull reported log10(Ki) for Delta-type opioid receptor (Mus musculus), entry CC[C@@H]1C[N+]2=C(C[C@@H]1/C(=C\OC)C(=O)OC)c1[nH]c3cccc(OC)c3c1CC2
Response line: -1.31

###

Emax reference
Test System: UniProt:P42866
Method Description: Agonist activity at mouse MOR expressed in CHO cell membranes assessed as stimulation of [35S]-GTPgammaS binding by measuring maximal efficacy incubated for 60 mins by scintillation spectroscopy analysis relative DAMGO
Conditions Used: Membrane, filed as agonist
Field: numeric (%). Do not append units.

Some solved cases for reference:
>>> quantitative_result("CC[C@@H]1CN2CCc3c([nH]c4cccc(O)c34)[C@@H]2C[C@@H]1/C(=C\\OC)C(=O)OC")
62
>>> quantitative_result("CC[C@@H]1CN2CCc3c([nH]c4cccc(O[C@@H]5O[C@H](C(=O)O)[C@@H](O)[C@H](O)[C@H]5O)c34)[C@@H]2C[C@@H]1/C(=C\\OC)C(=O)OC")
102
>>> quantitative_result("C=C[C@H]1CN2CCc3c([nH]c4cccc(OC)c34)[C@@H]2C[C@@H]1/C(=C\\OC)C(=O)OC")
54

# next compound below
Prompt line: Consider the compound shown here: CC[C@H]1CN2CCc3c([nH]c4cccc(OC)c34)[C@@H]2C[C@@H]1/C(=C\OC)C(=O)OC What is its recorded Emax?
Response line: 43

###

Test System: Delta-type opioid receptor (Mus musculus, UniProt P32300)
Sequence (P32300 whole entry): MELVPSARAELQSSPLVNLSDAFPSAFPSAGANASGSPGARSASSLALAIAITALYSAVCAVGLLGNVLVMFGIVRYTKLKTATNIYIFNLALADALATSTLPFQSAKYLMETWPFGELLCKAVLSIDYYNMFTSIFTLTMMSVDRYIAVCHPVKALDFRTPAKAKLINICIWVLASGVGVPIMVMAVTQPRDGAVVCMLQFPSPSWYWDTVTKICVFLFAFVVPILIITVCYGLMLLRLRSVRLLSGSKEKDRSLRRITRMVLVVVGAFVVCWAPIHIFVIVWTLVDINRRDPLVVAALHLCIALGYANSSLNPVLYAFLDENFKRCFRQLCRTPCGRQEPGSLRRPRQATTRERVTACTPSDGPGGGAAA
Method Description: Antagonist activity at mouse DOR expressed in CHO cell membranes assessed as inhibition of DPDPE induced [35S]-GTPgammaS binding incubated for 60 mins by scintillation spectroscopy analysis
Experimental Readout: pIC50
API: returns pIC50 as number; meaning -log10 of concentration in mol/L.

Prompt line: Consider the compound shown here: CC[C@@H]1C[N+]2=C(C[C@@H]1/C(=C\OC)C(=O)OC)c1[nH]c3cccc(OC)c3c1CC2 What is its recorded pIC50?
Response line: 5.96

###

Method Description: Toxicity in sc dosed C57BL/6J mouse assessed as lethality at 50 mg/kg, sc
Type: organism-based
Conditions Used: in vivo, read-out: Activity
Experimental Readout: mortality (%)
Field: numeric (%). Do not append units.

Prompt line: Consider the compound shown here: CC[C@@H]1C[N+]2=C(C[C@@H]1/C(=C\OC)C(=O)OC)c1[nH]c3cccc(OC)c3c1CC2 What is its recorded mortality?
Response line: 100

###

Emax reference
Test System: UniProtKB P33534
Method Description: Agonist activity at mouse KOR expressed in CHO cell membranes assessed as stimulation of [35S]-GTPgammaS binding by measuring maximal efficacy incubated for 60 mins by scintillation spectroscopy analysis relative to U50,488H
Conditions Used: Membrane, filed as agonist
Field: numeric (%). Do not append units.

Some solved cases for reference:
>>> quantitative_result("CC[C@@H]1CN2CCc3c([nH]c4cccc(O)c34)[C@@H]2C[C@@H]1/C(=C\\OC)C(=O)OC")
87
>>> quantitative_result("CC[C@@H]1CN2CCc3c([nH]c4cccc(OC)c34)[C@H]2C[C@@H]1/C(=C\\OC)C(=O)OC")
58
>>> quantitative_result("C=C[C@H]1CN2CCc3c([nH]c4cccc(OC)c34)[C@@H]2C[C@@H]1/C(=C\\OC)C(=O)OC")
57

Prompt line: Consider the molecule shown here: CC[C@@H]1C[N+]2=C(C[C@@H]1/C(=C\OC)C(=O)OC)c1[nH]c3cccc(OC)c3c1CC2 What is its recorded Emax?
Response line: 64

Prompt line: Consider the molecule shown here: CC[C@@H]1CN2CCc3c([nH]c4cccc(O[C@@H]5O[C@H](C(=O)O)[C@@H](O)[C@H](O)[C@H]5O)c34)[C@@H]2C[C@@H]1/C(=C\OC)C(=O)OC What is its recorded Emax?
Response line: 98

Hey, just so you know, these numbers are from ChEMBL document CHEMBL5233277.
